- Target Entity: SIX1-Q177R homeodomain (human, UniProt Q15475 108-198, Q177R)
- Sequence: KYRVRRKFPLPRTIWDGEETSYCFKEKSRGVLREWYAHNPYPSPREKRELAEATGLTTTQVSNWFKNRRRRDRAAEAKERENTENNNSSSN
- Protocol Description: universal protein binding microarray; Universal all-10-mer PBM (8x60K, AMADID 030236), 300 nM GST-tagged protein, Alexa Fluor 488 anti-GST; buffer, salt, pH and temperature not stated (as in Berger); high values mean tight binding
- Experimental Conditions: protein: ivt; tags: N-terminal GST; dsDNA, one strand shown
The full ranking holds about 33,000 sequences; the median of “e-score” is about -0.05, and the highest 2% start at about 0.38. The sample as a whole holds a higher share of the highest values than the screen did.
Returns: string. Value is Y if measured binding signal is below 0.2 E-score, and N if it is greater than or equal to it.

{"columns": ["Record Sequence", "Assigned Class"],
 "data": [
  ["TACACATA", "N"],
  ["GGTGCAAC", "N"],
  ["GTATCCTA", "Y"],
  ["GCTACACC", "N"],
  ["CACCAGTG", "N"],
  ["AGACACCG", "N"],
  ["GGAGTCCC", "Y"],
  ["ACTATACA", "N"],
  ["GGGTCCAA", "N"],
  ["AACACACT", "N"],
  ["CCCCGTGC", "N"],
  ["GCTATACC", "Y"],
  ["GTAACACA", "N"],
  ["GGAAGACA", "Y"],
  ["GACACATA", "N"],
  ["CCCGGGTC", "N"],
  ["AGTCGGGG", "Y"],
  ["AGTGTCCA", "N"],
  ["ACCCAGAA", "Y"],
  ["CTAACCCC", "N"],
  ["CAACGCCA", "Y"],
  ["AGACACCT", "N"],
  ["CACCTCGA", "N"],
  ["CCCTTGTA", "N"],
  ["ATAACTCC", "Y"],
  ["ACCCGGCG", "N"],
  ["CACCGGAA", "N"],
  ["GGGGTCCA", "N"],
  ["ATAACACG", "N"],
  ["AACCAGTG", "Y"],
  ["ACCCTACC", "Y"],
  ["CGTGTCCA", "N"],
  ["CACTACGG", "Y"],
  ["GATCCCAC", "N"],
  ["CCTACCCC", "N"],
  ["CCCCGACG", "Y"],
  ["AGACACGG", "N"],
  ["GTATCCAA", "N"],
  ["CACACGTG", "N"],
  ["CACCAGTC", "N"],
  ["GTGTCCCA", "N"],
  ["AACACCTC", "N"],
  ["TACACCTA", "N"],
  ["ACTACACG", "N"]
]}

* * *

# binding signal listing for each entry below
- Target Entity: SIX1-Q177R homeodomain (human, UniProt Q15475 108-198, Q177R)
- Sequence: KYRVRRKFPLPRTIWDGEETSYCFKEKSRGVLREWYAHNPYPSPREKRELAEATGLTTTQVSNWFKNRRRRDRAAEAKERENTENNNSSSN
- Protocol Description: universal protein binding microarray; Universal all-10-mer PBM (8x60K, AMADID 030236), 300 nM GST-tagged protein, Alexa Fluor 488 anti-GST; buffer, salt, pH and temperature not stated (as in Berger); high values mean tight binding
- Experimental Conditions: protein: ivt; tags: N-terminal GST; dsDNA, one strand shown
Over roughly 33,000 sequences, “e-score” has its median near -0.05; the highest 2% begin near 0.38. Shown is part of a subset that was picked to be rich in the highest values.

{"columns": ["Record Sequence", "Measure Unit", "binding signal"],
 "data": [
  ["ACCCGGGG", "E-score", 0.297],
  ["ACATTCGG", "E-score", 0.311],
  ["ACACCTTG", "E-score", 0.44],
  ["GCCCACAC", "E-score", 0.255],
  ["ACCTATAC", "E-score", 0.205],
  ["CCCTACAC", "E-score", 0.424],
  ["TGTGTCAA", "E-score", 0.303],
  ["ACCTACAC", "E-score", 0.43],
  ["GCCTACAC", "E-score", 0.442],
  ["ACCTACCC", "E-score", 0.252],
  ["TGTAAGAA", "E-score", 0.294],
  ["ACTACGTG", "E-score", 0.21],
  ["CCCCCCAG", "E-score", 0.162],
  ["GACGCCGA", "E-score", 0.174],
  ["CCCTACTC", "E-score", 0.19],
  ["TACCAACA", "E-score", 0.167],
  ["CCCTACCA", "E-score", 0.167],
  ["CGCCGACA", "E-score", 0.209],
  ["CACTCATG", "E-score", 0.244],
  ["CCCTACCC", "E-score", 0.185],
  ["ACACGTTA", "E-score", 0.297],
  ["CGTGTCAA", "E-score", 0.409]
]}

* * *

- Target Entity: SIX1-Q177R homeodomain (human, UniProt Q15475 108-198, Q177R)
- Sequence: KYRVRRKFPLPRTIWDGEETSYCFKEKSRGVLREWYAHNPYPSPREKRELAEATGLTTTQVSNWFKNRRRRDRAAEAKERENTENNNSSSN
- Protocol Description: universal protein binding microarray; Universal all-10-mer PBM (8x60K, AMADID 030236), 300 nM GST-tagged protein, Alexa Fluor 488 anti-GST; buffer, salt, pH and temperature not stated (as in Berger); high values mean tight binding
- Experimental Conditions: protein: ivt; tags: N-terminal GST; dsDNA, one strand shown
Over roughly 33,000 sequences, “e-score” has its median near -0.05; the highest 2% begin near 0.38. Only a selection was taken, and the highest values are over-represented in it overall.
Use 0.3 E-score as the dividing line for binding signal, with the line itself on the 1.0 side and lower values as 0.0.

{"columns": ["Record Sequence", "Assigned Class"],
 "data": [
  ["AACGGGTG", 1.0],
  ["ACTATCGA", 0.0],
  ["ACACCTGC", 1.0],
  ["ATATATAC", 0.0],
  ["GAGCACCA", 0.0],
  ["ACCCTACG", 0.0],
  ["CTGGATAC", 0.0],
  ["CACCGAGG", 0.0],
  ["CACAGTGG", 0.0],
  ["AAACACCC", 1.0],
  ["GTTCCGTA", 0.0],
  ["ACTCCTGA", 0.0],
  ["AAGTGTGG", 0.0],
  ["CCCCTGAG", 0.0],
  ["ACACAGCC", 0.0],
  ["CAAAATAC", 0.0],
  ["GTGTGACA", 1.0],
  ["GTGAAATA", 0.0],
  ["CAGTGTCG", 1.0],
  ["ATGTAACA", 0.0],
  ["GTGTAAAC", 1.0],
  ["AAACACTC", 1.0],
  ["GTGTGTAA", 1.0],
  ["AATATACA", 0.0],
  ["CCCCCACA", 0.0],
  ["GGTGCCAA", 0.0],
  ["AATACACC", 1.0],
  ["ATGGACAC", 1.0],
  ["CACGGATG", 0.0],
  ["CTGACCCC", 0.0],
  ["CAATACAC", 1.0],
  ["GGGTAACA", 0.0],
  ["ACCCCTGG", 0.0],
  ["CGGGGGTA", 1.0],
  ["GTGCACAC", 0.0],
  ["ATTGTGTA", 0.0],
  ["GTATCATA", 0.0],
  ["CATACTCC", 0.0],
  ["GGGTAAAC", 0.0],
  ["ACGTGCTC", 0.0],
  ["GTGTAACA", 1.0],
  ["AAACACCA", 1.0],
  ["CATACACC", 1.0],
  ["ACCAAGTG", 0.0],
  ["ATGGATAC", 0.0],
  ["CTGGACAC", 1.0],
  ["AACAGGGG", 0.0],
  ["ATGGAGAC", 0.0],
  ["AAATACAC", 1.0],
  ["ACTCCTGC", 0.0],
  ["AGGTGCAA", 0.0],
  ["CTGTGACA", 0.0],
  ["CCCCAAAC", 0.0],
  ["ATATACAC", 1.0],
  ["CGCATTAC", 0.0],
  ["ACCAGGCA", 0.0],
  ["GAATACCC", 0.0],
  ["AAACAACA", 0.0],
  ["AAGTCGTG", 0.0],
  ["GAGTATAC", 0.0],
  ["CACCGCTC", 0.0],
  ["GTATACAA", 0.0],
  ["AAGGGTCG", 0.0],
  ["GTATACAC", 1.0],
  ["GGGTAATA", 0.0],
  ["ACACCTGA", 1.0],
  ["ATGGTATC", 1.0],
  ["CCCCCTGC", 0.0],
  ["ATGGTACA", 0.0],
  ["ACCCTGGA", 0.0],
  ["CACTGGTA", 1.0],
  ["ACGCTACA", 0.0],
  ["CTGGAAAC", 0.0],
  ["AATACACT", 1.0],
  ["ACGCAGTG", 0.0],
  ["GGTGCATA", 0.0],
  ["CCCTAAGA", 0.0],
  ["CAGTCACA", 0.0],
  ["CAACACTA", 1.0],
  ["CGGTGTAG", 1.0],
  ["AAACACGA", 1.0],
  ["GAACACCA", 1.0],
  ["CACCGTTA", 0.0],
  ["TGCCGACA", 0.0],
  ["CACGAAGA", 0.0],
  ["ATTGTGTC", 0.0],
  ["GTTTAAAC", 1.0],
  ["ACACCTGG", 1.0],
  ["AAATGGTG", 0.0]
]}
